# log10(IC50) values compiled below
assayedTarget: CYP3A4 (Homo sapiens)
Construct: from tissue; host or cells: human liver microsomes
Sequence (P08684 whole entry): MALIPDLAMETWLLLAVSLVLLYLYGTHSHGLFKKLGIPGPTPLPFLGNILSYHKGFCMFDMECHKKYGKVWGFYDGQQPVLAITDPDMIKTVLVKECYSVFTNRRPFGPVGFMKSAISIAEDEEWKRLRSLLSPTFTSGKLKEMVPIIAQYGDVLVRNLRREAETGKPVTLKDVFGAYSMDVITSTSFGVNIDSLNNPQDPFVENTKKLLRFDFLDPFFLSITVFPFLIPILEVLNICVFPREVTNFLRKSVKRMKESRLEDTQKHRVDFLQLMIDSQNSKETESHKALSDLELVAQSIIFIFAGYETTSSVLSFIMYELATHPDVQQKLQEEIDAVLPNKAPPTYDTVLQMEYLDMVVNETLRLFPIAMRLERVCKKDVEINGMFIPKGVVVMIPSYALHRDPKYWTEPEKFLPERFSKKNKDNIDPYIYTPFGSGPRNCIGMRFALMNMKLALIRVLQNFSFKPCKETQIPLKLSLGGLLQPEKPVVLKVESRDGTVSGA
methodNotes: CYP inhibition assay, human liver microsomes, substrate midazolam
Type: in vitro ADME
conditionDetails: human liver microsomes, 10 min incubation, LC-MS/MS; read-out: CYP Inhibition Activity (IC50/nM) CYP3A4
// units: nM (pre-log); metric: IC50; scale: log10

Look over these answered cases.
Cc1ccc(N2CCC(C)(O)C2)c(NC(=O)c2ccc(C3CCOCC3)o2)c1 (racemic) [Example 58] = 4.37
CC1(CN)CCN(c2ccc(C(F)(F)F)cc2NC(=O)c2ccc(C3CCOCC3)o2)CC1 [Example 81] = 4.33
CN(C)C(=O)C1(C)CCN(c2ccc(C(F)(F)F)cc2NC(=O)c2ccc(-c3ccncc3)o2)CC1 [Example 74] = 2.86
CN(C)CC1(C)CCN(c2ccc(C(F)(F)F)cc2NC(=O)c2ccc(-c3ccncc3)o2)CC1 [Example 80] = 3.55
CN(C)CC1(C)CCN(c2ccc(C(F)(F)F)cc2NC(=O)c2ccc(C3CCOCC3)o2)CC1 [Example 83] = 4.32
CC1(O)CCN(c2ccc(C3CC3)cc2NC(=O)c2ccc(C3CCOCC3)o2)CC1 [Example 17] = 4.18

Summary for this compound, C[C@@]1(O)CCN(c2ccc(C(F)(F)F)cc2NC(=O)c2ccc(-c3ccncc3)o2)C1 [Example 52] : log10(IC50) is 3.08

Recorded result, COc1ccc(N2CCC(C)(O)CC2)c(NC(=O)c2ccc(C3CCOCC3)o2)c1 [Example 15] , log10(IC50): 4.03

// log10(IC50) lookup, compound = CC1(O)CCCN(c2ccc(C3CC3)cc2NC(=O)c2ccc(C3CCOCC3)o2)CC1 (racemic) [Example 42] , result: 4.01

Kindly note the recorded log10(IC50) for O=C(Nc1cc(Cl)ccc1N1CCCC(O)CC1)c1ccc(C2CCOCC2)o1 (racemic) [Example 48] , which is 4.32

Note to self: log10(IC50) recorded for CN(C)CC1(C)CCN(c2ccc(Cl)cc2NC(=O)c2ccc(C3CCOCC3)o2)CC1 [Example 91] was 4.28

Reported log10(IC50) of O=C(Nc1cc(C(F)(F)F)ccc1N1CCN(Cc2cocn2)CC1)c1ccc(-c2ccncc2)o1 [Reference Example 4, reference compound] : 2.92
